Values compiled from ChEMBL document CHEMBL4819021.

system: HCT-116; assay: Cytotoxicity against human HCT-116 cells assessed as reduction in cell viability at 40 uM measured after 72 hrs by MTS assay; format: functional, cell-based
The source made the active and inactive calls. The calls are words filed in the database; no cut-off is given here.
METRIC NAME: Activity

CC1=C[C@H](c2cc3ccc(=O)oc3cc2O[C@@H]2O[C@H](CO)[C@@H](O)[C@H](O)[C@H]2O)[C@@](C)(/C=C/c2cc3ccc(=O)oc3cc2O[C@@H]2O[C@H](COC3OC[C@@H](O)[C@H](O)[C@H]3O)[C@@H](O)[C@H](O)[C@H]2O)CC1 (some centres undefined)    inactive
CC1=C[C@@H](c2cc3ccc(=O)oc3cc2O[C@@H]2O[C@H](CO[C@@H]3OC[C@](O)(CO)[C@H]3O)[C@@H](O)[C@H](O)[C@H]2O)[C@@](C)(/C=C/c2cc3ccc(=O)oc3cc2O[C@@H]2O[C@H](CO)[C@@H](O)[C@H](O)[C@H]2O)CC1    inactive
CC1=C[C@H](c2cc3ccc(=O)oc3cc2O[C@@H]2O[C@H](COC3OC[C@@H](O)[C@H](O)[C@H]3O)[C@@H](O)[C@H](O)[C@H]2O)[C@](C)(/C=C/c2cc3ccc(=O)oc3cc2O[C@@H]2O[C@H](CO)[C@@H](O)[C@H](O)[C@H]2O)CC1 (some centres undefined)    inactive
CC1=C[C@@H](c2cc3ccc(=O)oc3cc2O[C@@H]2O[C@H](COC3OC[C@@H](O)[C@H](O)[C@H]3O)[C@@H](O)[C@H](O)[C@H]2O)[C@@](C)(/C=C/c2cc3ccc(=O)oc3cc2O[C@@H]2O[C@H](COC3OC[C@@H](O)[C@H](O)[C@H]3O)[C@@H](O)[C@H](O)[C@H]2O)CC1 (some centres undefined)    inactive
